Reported pIC50 is given for each of the following molecules.
Organism: Rattus norvegicus
Method summary: Concentration required to block Ca+2-induced contraction of K+ depolarized rat aorta
Type: functional
pIC50: −log10 of the molar value.

[
  {
    "Molecule": "CCO/C(O)=C1\\C(COCCN2CC(=O)NC2=O)=NC(C)=C(C(=O)OC)C1c1cccc(Cl)c1Cl (stereo not given)",
    "pIC50": 8.50
  },
  {
    "Molecule": "CCO/C(O)=C1\\C(COCCn2cc(C(N)=O)nn2)=NC(C)=C(C(=O)OC)C1c1cccc(Cl)c1Cl (stereo not given)",
    "pIC50": 8.50
  },
  {
    "Molecule": "CCOC(=O)C1=C(COCCN)NC(C)=C(C(=O)OC)C1c1ccccc1Cl (stereo not given) [AMLODIPINE]",
    "pIC50": 8.10
  },
  {
    "Molecule": "CCO/C(O)=C1\\C(COCCn2ccnn2)=NC(C)=C(C(=O)OC)C1c1cccc(Cl)c1Cl (stereo not given)",
    "pIC50": 8.30
  },
  {
    "Molecule": "CCO/C(O)=C1\\C(COCCN2CC(=O)N(C)C2=O)=NC(C)=C(C(=O)OC)C1c1ccccc1Cl (stereo not given)",
    "pIC50": 7.60
  }
]

----------
Species: Cavia porcellus
Method summary: Concentration required to depress contraction in the Langendorff-perfused guinea pig heart
Assay type: functional

[
  {
    "Compound": "CCO/C(O)=C1\\C(COCCn2ccnc2C)=NC(C)=C(C(=O)OC)C1c1ccccc1Cl (configuration not stated)",
    "Relation sign": "=",
    "pIC25": 7.8
  },
  {
    "Compound": "CCO/C(O)=C1\\C(COCCN2CC(=O)N=C2N)=NC(C)=C(C(=O)OC)C1c1ccccc1Cl (configuration not stated)",
    "Relation sign": "=",
    "pIC25": 6.1
  },
  {
    "Compound": "CCO/C(O)=C1\\C(COCCn2c(N)cnc2O)=NC(C)=C(C(=O)OC)C1c1ccccc1Cl (configuration not stated)",
    "Relation sign": "=",
    "pIC25": 6
  },
  {
    "Compound": "CCO/C(O)=C1\\C(COCCn2ccnn2)=NC(C)=C(C(=O)OC)C1c1cccc(Cl)c1Cl (configuration not stated)",
    "Relation sign": "=",
    "pIC25": 7.3
  },
  {
    "Compound": "CCO/C(O)=C1\\C(COCCn2nncc2C(N)=O)=NC(C)=C(C(=O)OC)C1c1cccc(Cl)c1Cl (configuration not stated)",
    "Relation sign": "=",
    "pIC25": 6.5
  },
  {
    "Compound": "CCO/C(O)=C1\\C(COCCn2cc(C(N)=O)nn2)=NC(C)=C(C(=O)OC)C1c1ccccc1Cl (configuration not stated)",
    "Relation sign": "<",
    "pIC25": 6
  },
  {
    "Compound": "CCO/C(O)=C1\\C(COCCN2CC(=O)N(C)C2=O)=NC(C)=C(C(=O)OC)C1c1ccccc1Cl (configuration not stated)",
    "Relation sign": "=",
    "pIC25": 6.4
  },
  {
    "Compound": "CCOC(=O)c1cn(CCOCC2=NC(C)=C(C(=O)OC)C(c3ccccc3Cl)/C2=C(\\O)OCC)nn1 (configuration not stated)",
    "Relation sign": "=",
    "pIC25": 7
  },
  {
    "Compound": "CCO/C(O)=C1\\C(COCCN2CC(=O)N(C)C2=O)=NC(C)=C(C(=O)OC)C1c1cccc(Cl)c1Cl (configuration not stated)",
    "Relation sign": "=",
    "pIC25": 7.2
  },
  {
    "Compound": "CCO/C(O)=C1\\C(COCCn2cc(C(N)=O)nn2)=NC(C)=C(C(=O)OC)C1c1cccc(Cl)c1Cl (configuration not stated)",
    "Relation sign": "=",
    "pIC25": 6.6
  },
  {
    "Compound": "CCOC(=O)C1=C(COCCN)NC(C)=C(C(=O)OC)C1c1ccccc1Cl (configuration not stated)",
    "Relation sign": "=",
    "pIC25": 7.2
  },
  {
    "Compound": "CCO/C(O)=C1\\C(COCCn2nncc2C(N)=O)=NC(C)=C(C(=O)OC)C1c1ccccc1Cl (configuration not stated)",
    "Relation sign": "=",
    "pIC25": 6.3
  },
  {
    "Compound": "CCO/C(O)=C1\\C(COCCn2cc(N)n(C)c2=O)=NC(C)=C(C(=O)OC)C1c1ccccc1Cl (configuration not stated)",
    "Relation sign": "=",
    "pIC25": 6.2
  },
  {
    "Compound": "CCO/C(O)=C1\\C(COCCn2cnc3ccccc32)=NC(C)=C(C(=O)OC)C1c1ccccc1Cl (configuration not stated)",
    "Relation sign": "=",
    "pIC25": 7.2
  },
  {
    "Compound": "CCO/C(O)=C1\\C(COCCN2CC(=O)NC2=O)=NC(C)=C(C(=O)OC)C1c1ccccc1Cl (configuration not stated)",
    "Relation sign": "=",
    "pIC25": 6.3
  },
  {
    "Compound": "CCO/C(O)=C1\\C(COCCN2C(=O)CNC2=O)=NC(C)=C(C(=O)OC)C1c1ccccc1Cl (configuration not stated)",
    "Relation sign": "=",
    "pIC25": 6.8
  },
  {
    "Compound": "CCO/C(O)=C1\\C(COCCN2CC(=O)NC2=O)=NC(C)=C(C(=O)OC)C1c1cccc(Cl)c1Cl (configuration not stated)",
    "Relation sign": "=",
    "pIC25": 7.1
  }
]
